| compound | melting point |
| --- | --- |
| CCCCCCCCCCCCCCCCNc1ccc(C(=O)OCCCCO)cc1 | 61 to 63 °C |
| CCOC(=O)c1cc(-n2c(OC)nc(C(F)(F)F)cc2=O)c(F)cc1Cl | 91 to 93 °C |
| O=[N+]([O-])c1cc([N+](=O)[O-])c(Nc2c(Br)cc(Cl)c3ccccc23)c(C(F)(F)F)c1 | 207 to 209 °C |
| CC(COc1ccc(CC2SC(=O)NC2=O)cc1)NCC(O)CSc1ccccc1 (centres undefined) | 176 to 177 °C |
| CCCC12C=CC=CC1C(=O)N(c1nc(C#N)c(C#N)[nH]1)C2=O (centres undefined) | 134 to 135 °C |
| O=C(O)COC(c1ccc(Cl)cc1)c1ccc(Cl)cc1 | 108 to 110 °C |
| CC(=O)NC(CCc1ccc(C(O)CCCCCc2ccccc2)cc1)(CO[Si](C)(C)C(C)(C)C)CO[Si](C)(C)C(C)(C)C (centres undefined) | 118 to 120 °C |
| O=C1N(CCCCN2CCN(c3n[nH]c4cc(F)ccc34)CC2)CSC12CCCC2 | 132 to 134 °C |
| O=C(c1ccccc1)c1ccc(OCc2nnn[nH]2)c(Cl)c1Cl | 184 to 186 °C |
